- target.or.system: sGC α1/β1 heterodimer (Homo sapiens, UniProt Q02108+Q02153)
- Construct: expressed in transfected cells; host or cells: CHO-K1 (clone #7, CHO-K1/sGC)
- Sequence (Q02108 1-690): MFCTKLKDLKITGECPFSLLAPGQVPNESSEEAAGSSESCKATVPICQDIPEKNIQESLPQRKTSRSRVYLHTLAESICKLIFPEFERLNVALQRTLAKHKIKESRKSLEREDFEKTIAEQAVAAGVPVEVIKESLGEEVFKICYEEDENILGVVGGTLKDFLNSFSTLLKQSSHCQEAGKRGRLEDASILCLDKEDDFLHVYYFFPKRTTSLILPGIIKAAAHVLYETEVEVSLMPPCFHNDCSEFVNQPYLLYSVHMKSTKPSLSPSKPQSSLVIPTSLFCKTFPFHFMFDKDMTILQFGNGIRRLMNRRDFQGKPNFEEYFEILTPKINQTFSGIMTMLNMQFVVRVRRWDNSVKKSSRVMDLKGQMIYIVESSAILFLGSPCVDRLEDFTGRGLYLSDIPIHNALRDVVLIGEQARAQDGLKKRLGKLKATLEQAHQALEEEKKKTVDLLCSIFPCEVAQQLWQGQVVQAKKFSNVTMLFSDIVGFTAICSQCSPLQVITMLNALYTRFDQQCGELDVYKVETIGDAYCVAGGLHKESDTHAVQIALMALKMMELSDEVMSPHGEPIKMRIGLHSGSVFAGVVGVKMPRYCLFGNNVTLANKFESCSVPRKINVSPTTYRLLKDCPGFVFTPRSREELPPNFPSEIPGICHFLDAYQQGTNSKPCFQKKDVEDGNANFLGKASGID
- Sequence (Q02153 1-619): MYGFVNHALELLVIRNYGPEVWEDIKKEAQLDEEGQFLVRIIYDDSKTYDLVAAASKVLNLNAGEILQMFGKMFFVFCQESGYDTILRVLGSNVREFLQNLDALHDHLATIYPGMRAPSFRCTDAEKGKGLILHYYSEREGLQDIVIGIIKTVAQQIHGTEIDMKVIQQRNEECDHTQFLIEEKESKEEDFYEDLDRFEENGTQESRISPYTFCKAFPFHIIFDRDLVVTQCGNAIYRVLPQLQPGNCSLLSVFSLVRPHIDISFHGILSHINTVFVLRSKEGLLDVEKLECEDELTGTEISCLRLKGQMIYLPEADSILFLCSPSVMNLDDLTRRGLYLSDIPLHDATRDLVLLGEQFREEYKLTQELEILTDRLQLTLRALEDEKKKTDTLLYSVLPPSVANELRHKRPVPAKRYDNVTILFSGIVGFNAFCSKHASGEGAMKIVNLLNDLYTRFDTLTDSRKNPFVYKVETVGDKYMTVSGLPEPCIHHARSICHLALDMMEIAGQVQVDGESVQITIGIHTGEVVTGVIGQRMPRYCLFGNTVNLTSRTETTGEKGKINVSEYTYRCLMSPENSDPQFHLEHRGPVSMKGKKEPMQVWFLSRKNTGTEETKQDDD
- experiment.summary: Cell-Based sGC Functional Assay (CASA Assay), cGMP by HTRF in CHO-K1/sGC cells
- condition.notes: CHO-K1, percent activation relative to maximum cGMP production of Compound A (= 100%), read-out: % Act.
parameter: Emax (%)

compound: CC1(c2ccc(Cl)cc2)C(=O)Nc2nc(-c3cn4ccnc4c(CCC(F)(F)C(F)(F)F)n3)nc(O)c21 (centres unmarked)
Emax [%]: 83
--
compound: CC1(c2ccc(F)cn2)C(=O)Nc2nc(-c3cn4ccnc4c(CCC(F)(F)C(F)(F)F)n3)nc(C3CC3)c21 (centres unmarked) [Example 71B]
Emax [%]: 135
--
compound: CC1(c2ccc(Cl)cn2)C(=O)Nc2nc(-c3cn4ccnc4c(CCCC(F)(F)F)n3)ncc21 (centres unmarked) [Example 59A]
Emax [%]: 91
--
compound: O=C1Nc2nc(-c3cn4ccnc4c(CCC(F)(F)C(F)(F)F)n3)ncc2C1(c1ccc(Cl)cn1)C1CC1 (centres unmarked)
Emax [%]: 113
--
compound: CC1(c2ccc(F)cn2)C(=O)Nc2nc(-c3cn4ccnc4c(Cc4ccc(F)cc4)n3)nc(O)c21 (centres unmarked)
Emax [%]: 118
--
compound: CCCCc1nc(-c2ncc3c(n2)NC(=O)C3(C)c2ccc(F)cc2)cn2ccnc12 (centres unmarked) [Example 78A]
Emax [%]: 121
--
compound: CC1(c2ccc(F)c(F)c2)C(=O)Nc2nc(-c3cn4ccnc4c(CCC(F)(F)F)n3)ncc21 (centres unmarked) [Example 37B]
Emax [%]: 125
--
compound: O=C1Nc2nc(-c3cn4ccnc4c(CCCC(F)(F)F)n3)nc(O)c2C1(c1ccc(Cl)cn1)C1CC1 (centres unmarked) [Example 10A]
Emax [%]: 126
--
compound: CC1(c2ccc(Cl)cn2)C(=O)Nc2nc(-c3cn4ccnc4c(CCC(F)(F)C(F)(F)F)n3)nc(O)c21 (centres unmarked) [Example 17A]
Emax [%]: 90
--
compound: CCCc1nc(-c2nc(O)c3c(n2)NC(=O)C3(C)c2ccc(Cl)c(F)c2)cn2ccnc12 (centres unmarked) [Example 15B]
Emax [%]: 84
--
compound: O=C1Nc2nc(-c3cn4ccnc4c(CCCC(F)(F)F)n3)ncc2C1(c1ccc(F)cc1)C1CC1 (centres unmarked) [Example 60B]
Emax [%]: 126
--
compound: CC1(c2ccc(Cl)cn2)C(=O)Nc2nc(-c3cn4ccnc4c(CCCC(F)(F)F)n3)nc(O)c21 (centres unmarked) [Example 28A]
Emax [%]: 95
--
compound: CCCCc1nc(-c2nc(O)c3c(n2)NC(=O)C3(c2ccc(Cl)c(F)c2)C2CC2)cn2ccnc12 (centres unmarked) [Example 21A]
Emax [%]: 122
--
compound: CC1(c2ccc(F)cn2)C(=O)Nc2nc(-c3cn4ccnc4c(CCC(F)(F)C(F)(F)F)n3)ncc21 (centres unmarked) [Example 62B]
Emax [%]: 98

Where these numbers come from: patent US10213429B2
